Measured target: T1, monkey 4-1BB on CHOK1 cells (monkey)
T1 construct: whole, on cells; also called CHOK1-c4-1BB
Assay procedure: FACS, CHOK1-c4-1BB cells; Ab 0.0032 ug/ml

{"columns": ["Binder", "average fluorescence intensity / MFI"],
 "data": [
  ["170D7F2 (antibody, V domains shown) VH: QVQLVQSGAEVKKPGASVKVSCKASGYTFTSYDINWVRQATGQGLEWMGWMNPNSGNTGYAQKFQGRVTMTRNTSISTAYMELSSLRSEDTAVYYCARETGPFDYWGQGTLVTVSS VL: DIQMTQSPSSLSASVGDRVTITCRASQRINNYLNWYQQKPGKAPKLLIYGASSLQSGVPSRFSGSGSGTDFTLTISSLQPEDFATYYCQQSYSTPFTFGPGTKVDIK", 8.5],
  ["118F3A2 (antibody, V domains shown) VH: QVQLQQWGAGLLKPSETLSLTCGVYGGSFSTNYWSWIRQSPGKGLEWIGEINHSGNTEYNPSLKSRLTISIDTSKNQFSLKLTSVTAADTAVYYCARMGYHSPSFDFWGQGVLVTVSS VL: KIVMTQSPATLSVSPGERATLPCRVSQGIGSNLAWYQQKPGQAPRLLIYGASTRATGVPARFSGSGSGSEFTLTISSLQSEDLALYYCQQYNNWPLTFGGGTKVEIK", 11.8]
]}

Where do the numbers come from? From patent US20200347144A1.
